- TARGET_OR_SYSTEM: Gal(b1-4)GlcNAc(b1-3)Gal(b1-4)GlcNAc(b1-3)Gal(b1-4)GlcNAc(b1-2)Man(a1-3)[Gal(b1-4)GlcNAc(b1-3)Gal(b1-4)GlcNAc(b1-3)Gal(b1-4)GlcNAc(b1-2)Man(a1-6)]Man(b1-4)GlcNAc(b1-4)[Fuc(a1-6)]GlcNAc
- EXPERIMENT_DESCRIPTION: glycan array binding signal (z-score within array); higher = stronger binding
- RUN_PARAMETERS: glycan notation: IUPAC condensed, linker removed
The sample as a whole holds a higher share of the strongest signals than the screen did.
ASSAY_ENDPOINT: glycan array binding signal (z-score)
Provide a numeric answer; units are not to be included.

Value of measured glycan array binding signal (z-score) for the entry SP15308F-bth-333-19-333 (Bacteroides thetaiotaomicron) (protein) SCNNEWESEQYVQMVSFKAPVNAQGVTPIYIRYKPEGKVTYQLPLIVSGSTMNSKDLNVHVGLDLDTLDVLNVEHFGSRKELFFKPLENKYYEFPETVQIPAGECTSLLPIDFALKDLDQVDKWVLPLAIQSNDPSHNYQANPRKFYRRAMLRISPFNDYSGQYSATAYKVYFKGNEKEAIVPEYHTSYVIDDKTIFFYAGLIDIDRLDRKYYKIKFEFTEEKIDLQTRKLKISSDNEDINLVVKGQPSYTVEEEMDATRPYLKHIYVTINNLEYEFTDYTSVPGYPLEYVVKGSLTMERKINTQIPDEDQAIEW : 1.45
